- measured.target: T1, EsCas13d, nuclease-dead (Eubacterium siraeum, UniProt B0MS50, R295A;H300A;R849A;H854A)
- T1 sequence: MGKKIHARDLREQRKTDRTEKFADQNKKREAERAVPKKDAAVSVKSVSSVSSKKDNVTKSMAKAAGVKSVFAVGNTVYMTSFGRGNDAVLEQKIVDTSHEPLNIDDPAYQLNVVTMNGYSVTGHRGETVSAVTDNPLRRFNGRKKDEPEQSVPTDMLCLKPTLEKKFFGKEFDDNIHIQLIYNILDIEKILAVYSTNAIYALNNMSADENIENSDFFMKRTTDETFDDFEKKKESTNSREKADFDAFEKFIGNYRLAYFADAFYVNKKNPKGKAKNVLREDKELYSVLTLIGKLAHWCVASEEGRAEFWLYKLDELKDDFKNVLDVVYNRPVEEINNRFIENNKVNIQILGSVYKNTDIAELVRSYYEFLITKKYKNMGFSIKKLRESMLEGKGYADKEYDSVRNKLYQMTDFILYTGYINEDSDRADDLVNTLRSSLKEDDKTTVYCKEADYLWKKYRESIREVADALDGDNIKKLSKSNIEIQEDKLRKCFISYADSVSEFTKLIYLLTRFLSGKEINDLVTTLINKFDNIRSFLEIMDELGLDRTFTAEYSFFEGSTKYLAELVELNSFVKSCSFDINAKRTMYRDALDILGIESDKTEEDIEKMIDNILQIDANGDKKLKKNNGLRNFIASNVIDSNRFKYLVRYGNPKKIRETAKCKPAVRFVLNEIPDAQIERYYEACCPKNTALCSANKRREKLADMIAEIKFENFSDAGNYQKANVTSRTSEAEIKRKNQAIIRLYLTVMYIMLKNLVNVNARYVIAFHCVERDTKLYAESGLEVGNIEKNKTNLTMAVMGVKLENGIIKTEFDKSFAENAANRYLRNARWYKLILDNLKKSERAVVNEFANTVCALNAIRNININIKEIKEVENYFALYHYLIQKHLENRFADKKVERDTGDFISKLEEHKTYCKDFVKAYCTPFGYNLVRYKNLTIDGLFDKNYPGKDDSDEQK
- assay.explanation: crRNA (strand 1, pre-loaded); Mg2+; 40 mM Tris-HCl pH 7.5, 150 mM NaCl, 6 mM MgCl2, 1 mM DTT, 0.1% Tween-20, 0.2 mg/ml BSA; 25 C; 10 min per concentration, then washed
- conditions: tags: His6-TwinStrep-SUMO cleaved; N-terminal SNAP kept (SNAP-Surface 488); label: 3' end held by stalled T7 RNA polymerase
pKd: −log10 of the molar value.
reported.endpoint: pKd

{"binder": "target 1 MT 5'PFS GAC 3'PFS AUU (mixed) RNA 1: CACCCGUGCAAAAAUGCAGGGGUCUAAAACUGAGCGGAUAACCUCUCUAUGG RNA 2: GGGAAUGGAUCCACAUCUACGAAUUCGACCCAUAGAGAGGUUAUCCGCUCAAUUAGAUCGGAAGAGCACACGU", "reported.endpoint": "pKd", "readout.value": 7.67}
{"binder": "target 1 MT 5'PFS GUA 3'PFS AUA (mixed) RNA 1: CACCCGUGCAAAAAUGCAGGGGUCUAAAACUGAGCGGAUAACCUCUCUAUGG RNA 2: GGGAAUGGAUCCACAUCUACGAAUUCGUACCAUAGAGAGGUUAUCCGCUCAAUAAGAUCGGAAGAGCACACGU", "reported.endpoint": "pKd", "readout.value": 7.85}
{"binder": "target 1 G13A,A16U (mixed) RNA 1: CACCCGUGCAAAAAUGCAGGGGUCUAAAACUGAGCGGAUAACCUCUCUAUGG RNA 2: GGGAAUGGAUCCACAUCUACGAAUUCGUACCAUAGUGAAGUUAUCCGCUCACCGAGAUCGGAAGAGCACACGU", "reported.endpoint": "pKd", "readout.value": 7.37}
{"binder": "target 3 insA 3' of 15,insG 3' of 2 (mixed) RNA 1: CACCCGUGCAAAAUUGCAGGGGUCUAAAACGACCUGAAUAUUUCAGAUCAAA RNA 2: GGGAAUGGAUCCACAUCUACGAAUUCGUUUUUGAUCUAGAAAUAUUCAGGUGCUGCAGAUCGGAAGAGCACACGU", "reported.endpoint": "pKd", "readout.value": 7.16}
